- PROCEDURE DETAILS: Metabolic stability test in liver microsomes (mouse)
- Assay type: in vitro ADME
- COND: percentage of remaining compound after incubation for 30 minutes vs 0 minute; 1 μM compound; 0.5 mg/mL liver microsomes; 37° C.
ENDPOINT: Mouse liver microsome stability (%)

Example entries begin here.
C[C@@H](Nc1nc(N[C@H](C)C(F)(F)F)nc(C2=C(F)C(O)C(F)(F)CC2)n1)C(F)(F)F (single isomer, unassigned) [Compound 197]: 98.4
[2H]C1(O)CCCC(c2nc(NC3CC(F)(F)C3)nc(NC3CC(F)(F)C3)n2)=C1F (stereo not shown): 66.2
C[C@@H](Nc1nc(N[C@H](C)C(F)(F)F)nc(C2=C(F)C(O)C(F)(F)CC2)n1)C(F)(F)F (mixture of isomers) [Compound 196]: 95.2
CC(C)Nc1nc(N[C@H](C)C(F)(F)F)nc(C2=C(F)C(O)C(F)CC2)n1 (single isomer, unassigned): 80.1

a: OC1C(F)=C(c2nc(NC3CC(F)(F)C3)nc(NC3CC(F)(F)C3)n2)CCC1F (single isomer, unassigned) [Compound 201]
b: OC1C=C(c2nc(NC3CC(F)(F)C3)nc(NC3CC(F)(F)C3)n2)CCC1 (stereo not shown)
Qu. Return label of the item with the larger Mouse liver microsome stability. Candidates: a , b . To answer, give the label that identifies your chosen option.
Ans. a
